system-tested: Aurora kinase A (Homo sapiens, UniProt O14965)
Sequence (O14965 whole entry): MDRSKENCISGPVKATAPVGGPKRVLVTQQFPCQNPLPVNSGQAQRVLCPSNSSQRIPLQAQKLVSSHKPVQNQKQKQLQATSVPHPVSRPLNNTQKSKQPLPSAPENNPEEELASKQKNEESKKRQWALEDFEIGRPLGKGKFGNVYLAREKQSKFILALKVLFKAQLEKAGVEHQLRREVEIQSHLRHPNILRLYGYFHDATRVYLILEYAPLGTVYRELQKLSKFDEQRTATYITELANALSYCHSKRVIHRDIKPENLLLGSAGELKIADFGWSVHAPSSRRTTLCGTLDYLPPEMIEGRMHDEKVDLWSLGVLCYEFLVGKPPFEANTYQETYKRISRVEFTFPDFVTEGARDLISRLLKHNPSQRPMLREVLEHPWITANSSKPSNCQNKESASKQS
assay-remarks: Inhibition of Aurora A in human HEK293 cells after 1 hr by competition binding assay
Type: cell-based
measurement-label: Kd

Query: Read off the recorded Kd for COc1cc2ncnc(Oc3cccc(NC(=O)Nc4cc(C(C)(C)C(F)(F)F)on4)c3)c2cc1OC [CEP-32496]
Result: > 10 µM

###

assay-remarks: Half life in beagle dog at 1 mg/kg, iv and 10 mg/kg, po
Format: ADME, organism-based, Canis lupus familiaris
protocol-conditions: in vivo
measurement-label: half-life (h)
Your answer should be a plain number; it is taken to be in h.

Query: Indicate its recorded half-life; the compound in question is `COc1cc2ncnc(Oc3cccc(NC(=O)Nc4cc(C(C)(C)C(F)(F)F)on4)c3)c2cc1OC`
Result: 12

###

assay-remarks: Terminal half life in Sprague-Dawley rat at 1 mg/kg, iv and 10 mg/kg, po
Assay type: ADME, organism-based
protocol-conditions: in vivo, read-out: beta t1/2 (converted)
Rule: half-life under 5 h gives false (0), otherwise true (1).

COc1cc2ncnc(Oc3cccc(NC(=O)Nc4cc(C(C)(C)F)on4)c3)c2cc1OC: false (0)
COc1cc2ncnc(Oc3cccc(NC(=O)Nc4cc(C(C)(C)C(F)(F)F)on4)c3)c2cc1OC: true (1)
COc1cc2ncnc(Oc3cccc(NC(=O)Nc4cc(C(C)(C)C)on4)c3)c2cc1OC: true (1)
COc1cc2ncnc(Oc3cccc(NC(=O)Nc4cc(C(C)(C)C)nn4-c4ccccc4)c3)c2cc1OC: false (0)
COc1cc2ncnc(Oc3cccc(NC(=O)Nc4cc(C(C)(C)F)no4)c3)c2cc1OC: false (0)

For the next question, use this compound.
Query: For this compound, is measured half-life 5 h or higher? `COc1cc2ncnc(Oc3cccc(NC(=O)Nc4cc(C(C)(C)C)no4)c3)c2cc1OC`
Result: true (1)

###

Entries with their measured IC50, system Serine/threonine-protein kinase B-raf (Homo sapiens, UniProt P15056, V600E):

COc1cc2ncnc(Oc3cccc(NC(=O)Nc4cc(C(C)(CF)CF)no4)c3)c2cc1OC: 339 nM

Query: Specify measured IC50 for `COc1cc2ncnc(Oc3cccc(NC(=O)Nc4cc(C(C)(C)C#N)no4)c3)c2cc1OC` .
Result: 332 nM

Query: Give the value of IC50 reported for the following: `COc1cc2ncnc(Oc3cccc(NC(=O)Nc4cc(C(C)(C)C)nn4C(C)C)c3)c2cc1OC`
Result: 505 nM

###

assay-remarks: Cmax in beagle dog at 10 mg/kg, po
Type: ADME, organism-based, Canis lupus familiaris
Design: dose 10 mg/kg, route oral
protocol-conditions: in vivo
measurement-label: Cmax (µM)
Express your answer in µM, writing the number without its unit.

Query: Please report the measured Cmax for COc1cc2ncnc(Oc3cccc(NC(=O)Nc4cc(C(C)(C)C(F)(F)F)on4)c3)c2cc1OC [CEP-32496]
Result: 5.2

###

system-tested: Phosphatidylinositol 4,5-bisphosphate 3-kinase catalytic subunit alpha isoform (Homo sapiens)
Sequence (P42336 whole entry, canonical isoform): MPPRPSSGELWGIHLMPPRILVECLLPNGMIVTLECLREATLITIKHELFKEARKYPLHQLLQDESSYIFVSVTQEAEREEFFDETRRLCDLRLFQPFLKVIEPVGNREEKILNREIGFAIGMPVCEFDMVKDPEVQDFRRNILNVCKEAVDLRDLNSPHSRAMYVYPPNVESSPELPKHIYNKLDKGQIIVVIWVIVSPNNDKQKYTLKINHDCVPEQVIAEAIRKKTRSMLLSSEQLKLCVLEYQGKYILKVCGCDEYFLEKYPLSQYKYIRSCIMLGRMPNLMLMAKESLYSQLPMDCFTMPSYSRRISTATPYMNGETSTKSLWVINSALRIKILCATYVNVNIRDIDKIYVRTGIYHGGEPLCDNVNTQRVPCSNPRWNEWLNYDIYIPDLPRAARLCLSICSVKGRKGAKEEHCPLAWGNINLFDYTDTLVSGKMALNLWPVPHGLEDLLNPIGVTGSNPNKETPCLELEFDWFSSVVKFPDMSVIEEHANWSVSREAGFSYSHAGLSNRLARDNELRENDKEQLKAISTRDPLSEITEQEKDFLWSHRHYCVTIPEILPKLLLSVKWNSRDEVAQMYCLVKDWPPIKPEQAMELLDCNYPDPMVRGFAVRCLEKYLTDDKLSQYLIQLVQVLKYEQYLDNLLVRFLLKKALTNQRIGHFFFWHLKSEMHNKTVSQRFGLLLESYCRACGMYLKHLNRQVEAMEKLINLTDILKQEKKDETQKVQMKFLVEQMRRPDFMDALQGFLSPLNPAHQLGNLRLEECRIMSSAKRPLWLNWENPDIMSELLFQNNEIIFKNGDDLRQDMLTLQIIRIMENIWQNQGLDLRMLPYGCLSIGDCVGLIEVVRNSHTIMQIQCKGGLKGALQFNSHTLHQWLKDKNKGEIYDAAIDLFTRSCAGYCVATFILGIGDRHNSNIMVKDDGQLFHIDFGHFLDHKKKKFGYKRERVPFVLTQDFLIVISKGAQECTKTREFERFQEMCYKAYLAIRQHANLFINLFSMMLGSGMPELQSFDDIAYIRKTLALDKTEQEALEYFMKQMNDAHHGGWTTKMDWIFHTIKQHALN
assay-remarks: Inhibition of PIK3-CA in human HEK293 cells after 1 hr by competition binding assay
pKd: −log10 of the molar value.
measurement-label: pKd

Query: Consider the compound COc1cc2ncnc(Oc3cccc(NC(=O)Nc4cc(C(C)(C)C(F)(F)F)on4)c3)c2cc1OC [CEP-32496] . State its measured pKd.
Result: < 5.00

###

assay-remarks: Clearance in Sprague-Dawley rat at 1 mg/kg, iv and 10 mg/kg, po
Format: ADME, organism-based
protocol-conditions: in vivo
measurement-label: clearance (mL/min/kg)
Please give a number only; it is taken to be in mL/min/kg.

Below: 3 compounds and their reported clearance.
COc1cc2ncnc(Oc3cccc(NC(=O)Nc4cc(C(C)(C)F)no4)c3)c2cc1OC: 4
COc1cc2ncnc(Oc3cccc(NC(=O)Nc4cc(C(C)(C)C)no4)c3)c2cc1OC: 9.8
COc1cc2ncnc(Oc3cccc(NC(=O)Nc4cc(C(C)(C)C)on4)c3)c2cc1OC: 7.3

Query: Answer with reported clearance of COc1cc2ncnc(Oc3cccc(NC(=O)Nc4cc(C(C)(C)C(F)(F)F)on4)c3)c2cc1OC [CEP-32496]
Result: 3.4

Query: Name the recorded clearance of the compound listed here: `COc1cc2ncnc(Oc3cccc(NC(=O)Nc4cc(C(C)(C)C)nn4-c4ccccc4)c3)c2cc1OC`
Result: 3.1

Query: Return reported clearance. Input compound: `COc1cc2ncnc(Oc3cccc(NC(=O)Nc4cc(C(C)(C)F)on4)c3)c2cc1OC`
Result: 2.9

###

system-tested: Serine/threonine-protein kinase B-raf (Homo sapiens, UniProt P15056, V600E)
Sequence (P15056 2-766 V600E limits assumed): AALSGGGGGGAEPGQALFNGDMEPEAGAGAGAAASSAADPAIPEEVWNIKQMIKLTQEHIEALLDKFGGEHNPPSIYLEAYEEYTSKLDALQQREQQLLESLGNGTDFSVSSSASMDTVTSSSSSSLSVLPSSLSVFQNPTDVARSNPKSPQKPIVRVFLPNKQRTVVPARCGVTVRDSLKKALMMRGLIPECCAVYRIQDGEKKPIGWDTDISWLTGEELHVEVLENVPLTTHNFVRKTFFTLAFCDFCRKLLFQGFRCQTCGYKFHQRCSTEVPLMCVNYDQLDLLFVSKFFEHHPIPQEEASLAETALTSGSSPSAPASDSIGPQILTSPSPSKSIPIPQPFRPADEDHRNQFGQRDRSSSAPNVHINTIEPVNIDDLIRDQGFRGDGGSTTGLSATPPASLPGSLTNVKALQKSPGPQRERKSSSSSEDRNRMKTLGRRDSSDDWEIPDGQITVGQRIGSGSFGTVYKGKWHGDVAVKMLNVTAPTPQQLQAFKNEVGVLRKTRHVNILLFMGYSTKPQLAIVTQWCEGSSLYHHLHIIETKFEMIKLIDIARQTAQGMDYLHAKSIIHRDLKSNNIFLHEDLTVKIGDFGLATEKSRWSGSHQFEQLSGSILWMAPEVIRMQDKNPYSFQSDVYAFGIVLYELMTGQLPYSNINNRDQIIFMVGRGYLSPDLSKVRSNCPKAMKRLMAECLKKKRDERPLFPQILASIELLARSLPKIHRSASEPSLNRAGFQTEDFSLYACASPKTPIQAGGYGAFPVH
measurement-label: pKd
Friendly reminder that pKd comes from taking -log10 of the concentration in mol/L.

Observe how each entry below is paired with its result.
COc1cc2ncnc(Oc3cccc(NC(=O)Nc4cc(C(C)(C)C)nn4C(C)C)c3)c2cc1OC: 7.07
COc1cc2ncnc(Oc3cccc(NC(=O)Nc4cc(C(C)(CF)CF)on4)c3)c2cc1OC: 7.35
COc1cc2ncnc(Oc3cccc(NC(=O)Nc4cc(C5(C(F)(F)F)CC5)on4)c3)c2cc1OC: 7.57

Then there is this molecule:
Query: Report value only: pKd, Serine/threonine-protein kinase B-raf (Homo sapiens, UniProt P15056, V600E), `COc1cc2ncnc(Oc3cccc(NC(=O)Nc4cc(C(C)(CF)CF)no4)c3)c2cc1OC`
Result: 6.88

###

system-tested: Serine/threonine-protein kinase PLK1 (Homo sapiens)
Sequence (P53350 whole entry): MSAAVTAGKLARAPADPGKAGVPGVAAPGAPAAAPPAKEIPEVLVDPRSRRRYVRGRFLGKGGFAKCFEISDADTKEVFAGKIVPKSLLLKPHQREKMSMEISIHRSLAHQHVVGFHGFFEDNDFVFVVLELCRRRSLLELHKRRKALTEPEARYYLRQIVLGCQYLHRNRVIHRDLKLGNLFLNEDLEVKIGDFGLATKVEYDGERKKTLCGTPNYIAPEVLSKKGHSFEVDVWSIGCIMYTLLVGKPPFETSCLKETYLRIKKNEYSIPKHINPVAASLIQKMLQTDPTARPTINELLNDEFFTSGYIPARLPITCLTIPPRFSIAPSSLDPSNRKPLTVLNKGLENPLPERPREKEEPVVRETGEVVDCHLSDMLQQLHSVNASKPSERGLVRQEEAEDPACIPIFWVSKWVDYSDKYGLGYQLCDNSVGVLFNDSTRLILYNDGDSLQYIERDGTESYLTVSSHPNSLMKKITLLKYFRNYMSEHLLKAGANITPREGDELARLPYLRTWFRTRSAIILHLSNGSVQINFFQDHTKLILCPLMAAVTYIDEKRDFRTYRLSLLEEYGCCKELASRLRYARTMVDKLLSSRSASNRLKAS
assay-remarks: Inhibition of PLK1 in human HEK293 cells after 1 hr by competition binding assay
pKd: −log10 of the molar value.
measurement-label: pKd

Query: Please supply the value of reported pKd for the item `COc1cc2ncnc(Oc3cccc(NC(=O)Nc4cc(C(C)(C)C(F)(F)F)on4)c3)c2cc1OC`
Result: < 5.00

###

assay-remarks: Half life in dog liver microsomes
Assay type: ADME, Canis lupus familiaris, Microsome
measurement-label: half-life

Query: Supply half-life value. Item: `COc1cc2ncnc(Oc3cccc(NC(=O)Nc4cc(C(C)(C)C(F)(F)F)on4)c3)c2cc1OC`
Result: > 1 h

###

assay-remarks: Volume of distribution in Cynomolgus monkey at 1 mg/kg, iv and 10 mg/kg, po
Format: ADME, organism-based, Macaca fascicularis
protocol-conditions: in vivo
measurement-label: Vd (L/kg)
Entry rule: numbers only, all in L/kg.

Query: Provide only the value of recorded Vd for `COc1cc2ncnc(Oc3cccc(NC(=O)Nc4cc(C(C)(C)C(F)(F)F)on4)c3)c2cc1OC`
Result: 2.5

###

assay-remarks: Oral bioavailability in beagle dog at 10 mg/kg
Format: ADME, organism-based, Canis lupus familiaris
protocol-conditions: in vivo
measurement-label: bioavailability

Query: State its bioavailability: `COc1cc2ncnc(Oc3cccc(NC(=O)Nc4cc(C(C)(C)C(F)(F)F)on4)c3)c2cc1OC`
Result: 100%

###

system-tested: Serine/threonine-protein kinase B-raf (Homo sapiens)
assay-remarks: Inhibition of wild type BRAF in human HEK293 cells after 1 hr by competition binding assay
measurement-label: Kd (nM)
Express the result in nM but write the number alone.

Query: Consider the compound `COc1cc2ncnc(Oc3cccc(NC(=O)Nc4cc(C(C)(C)C(F)(F)F)on4)c3)c2cc1OC` and give its recorded Kd.
Result: 36

###

system-tested: Mitogen-activated protein kinase 3 (Homo sapiens)
Sequence (P27361 whole entry): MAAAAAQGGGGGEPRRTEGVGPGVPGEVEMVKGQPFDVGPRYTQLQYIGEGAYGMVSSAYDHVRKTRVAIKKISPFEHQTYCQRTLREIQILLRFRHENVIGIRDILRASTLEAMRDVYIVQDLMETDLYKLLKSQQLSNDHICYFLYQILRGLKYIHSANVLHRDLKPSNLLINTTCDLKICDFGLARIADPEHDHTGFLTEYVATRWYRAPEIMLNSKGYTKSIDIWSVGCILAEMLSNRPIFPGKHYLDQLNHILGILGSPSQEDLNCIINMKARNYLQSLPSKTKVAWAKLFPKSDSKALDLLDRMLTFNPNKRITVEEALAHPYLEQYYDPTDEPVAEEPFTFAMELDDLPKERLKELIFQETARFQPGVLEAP
assay-remarks: Inhibition of ERK1 in human HEK293 cells after 1 hr by competition binding assay
pKd: −log10 of the molar value.
measurement-label: pKd

Query: Specify pKd for `COc1cc2ncnc(Oc3cccc(NC(=O)Nc4cc(C(C)(C)C(F)(F)F)on4)c3)c2cc1OC` and stop.
Result: < 5.00

###

assay-remarks: Volume of distribution in beagle dog at 1 mg/kg, iv and 10 mg/kg, po
Type: ADME, organism-based, Canis lupus familiaris
protocol-conditions: in vivo
measurement-label: Vd (L/kg)
The figure you give is taken to be in L/kg; do not add the unit.

Query: Return Vd (reported value) for this molecule: `COc1cc2ncnc(Oc3cccc(NC(=O)Nc4cc(C(C)(C)C(F)(F)F)on4)c3)c2cc1OC`
Result: 4.5

Values were extracted from ChEMBL document CHEMBL2029242.
